# Organism: Rattus norvegicus
# Measurement protocol: Open TG-GATES - Regimen: Single
# Type: toxicity, organism-based, Sprague-Dawley
# Parameters: regimen Single, gender Male, age 6 weeks
# Reported conditions: in vivo, po, 0 mg/kg, 6 h, tissue Blood, route gavage, dose level Control
MCV listing for selected compounds.
Measured metric: MCV (fL)

1) O=C1NC(=O)C(c2ccccc2)(c2ccccc2)N1 ... 61.5
2) O=C1CN(/N=C/c2ccc(-c3ccc([N+](=O)[O-])cc3)o2)C(O)=N1 ... 65.4
3) CS(=O)(=O)Nc1ccc([N+](=O)[O-])cc1Oc1ccccc1 [NIMESULIDE] ... 65.3

* * *

# Species on record: Rattus norvegicus
# Measurement protocol: Open TG-GATES - Regimen: Daily Repeat
# Type: toxicity, organism-based, Sprague-Dawley
# Set-up: regimen Daily Repeat, gender Male, age 6 weeks
# Reported conditions: in vivo, po, 0 mg/kg, […], tissue Plasma, route gavage, dose level Control, time 14 day
Measured metric: Na (meq/L)

1. Cc1cnc(NC(=O)C2=C(O)c3ccccc3S(=O)(=O)N2C)s1 [MELOXICAM] ... 142
2. O=C1NC(=O)C(c2ccccc2)(c2ccccc2)N1 [PHENYTOIN] ... 141.4
3. O=P1(N(CCCl)CCCl)NCCCO1 (stereo not drawn) [CYCLOPHOSPHAMIDE ANHYDROUS] ... 143.4

* * *

# Species: Rattus norvegicus
# Measurement protocol: Open TG-GATES - Regimen: Daily Repeat
# Format: toxicity, organism-based, Sprague-Dawley
# Set-up: regimen Daily Repeat, gender Male, age 6 weeks
# Reported conditions: in vivo, po, 0 mg/kg, […], tissue Blood, route gavage, dose level Control, time 28 day
APTT listing for selected compounds.
Measured metric: APTT

1. COc1ccc(O)c(C(C)(C)C)c1.COc1ccc(O)cc1C(C)(C)C [BUTYLATED HYDROXYANISOLE] ... 17.9 s
2. C=CCO [ALLYL ALCOHOL] ... 20.9 s
3. Cc1cccc(Nc2cc(Cl)nc(SCC(=O)O)n2)c1C [PIRINIXIC ACID] ... 17.7 s
4. COc1ccc(Cl)cc1C(=O)NCCc1ccc(S(=O)(=O)NC(=O)NC2CCCCC2)cc1 [GLYBURIDE] ... 19.9 s

* * *

# Species: Rattus norvegicus
# Measurement protocol: Open TG-GATES - Regimen: Daily Repeat
# Type: toxicity, organism-based, Sprague-Dawley
# Set-up: regimen Daily Repeat, gender Male, age 6 weeks
# Reported conditions: in vivo, po, 0 mg/kg, 72 h, tissue Plasma, route gavage, dose level Control, time 3 day
Measured metric: TG (mg/dL)

1. O=P1(N(CCCl)CCCl)NCCCO1 (stereo not given) [CYCLOPHOSPHAMIDE ANHYDROUS] ... 84.2
2. COc1ccc(O)c(C(C)(C)C)c1.COc1ccc(O)cc1C(C)(C)C [BUTYLATED HYDROXYANISOLE] ... 69.4
3. Cn1c(=O)c2c(ncn2C)n(C)c1=O ... 83.4
4. COc1ccc(Cl)cc1C(=O)NCCc1ccc(S(=O)(=O)NC(=O)NC2CCCCC2)cc1 [GLYBURIDE] ... 92.6
5. Cc1cnc(NC(=O)C2=C(O)c3ccccc3S(=O)(=O)N2C)s1 ... 111.6

* * *

Eos listing for selected compounds.
# Species on record: Rattus norvegicus
# Measurement protocol: Open TG-GATES - Regimen: Daily Repeat
# Type: toxicity, organism-based, Sprague-Dawley
# Parameters: regimen Daily Repeat, gender Male, age 6 weeks
# Reported conditions: in vivo, po, 0 mg/kg, […], tissue Blood, route gavage, dose level Control, time 14 day
Measured metric: Eos (%)

1) CS(=O)(=O)Nc1ccc([N+](=O)[O-])cc1Oc1ccccc1 [NIMESULIDE] ... 1.2
2) Cc1cccc(Nc2cc(Cl)nc(SCC(=O)O)n2)c1C ... 0.8
3) O=C1CN(/N=C/c2ccc(-c3ccc([N+](=O)[O-])cc3)o2)C(O)=N1 ... 0.4
4) COc1ccc(Cl)cc1C(=O)NCCc1ccc(S(=O)(=O)NC(=O)NC2CCCCC2)cc1 [GLYBURIDE] ... 0.6
5) O=C1NC(=O)C(c2ccccc2)(c2ccccc2)N1 ... 1

Reference for the values: ChEMBL document CHEMBL3885861
